B1: GLTSCR2 (parent)
chain: YNPSFEDHQTLLSAAHEVELQRQK

Variants of: B1
methodNotes: protein stability index of a GFP-peptide fusion (GPS, HEK-293T) (PSI 1-6); higher = more stable;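 also: lentivirally expressed fusions sorted by FACS into six bins by GFP to DsRed ratio, PSI derived from sequencing read proportions per bin multiplied by bin number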
conditions: c terminus: a fixed tail appended
readoutType: protein stability index
Numbers only.

- N2Y: 4.29
- H16C: 3.28
- S4I: 3.82
- A15D: 4.54
- A15N: 3.85

For every record below, what is its protein stability index?
1. P3R
2. T10Y
3. Y1I
4. E6R
5. K24T
6. L20R
7. A14P

Result:
3.85
3.03
4.74
2.57
3.98
3.89
4.08

For every record below, what is its protein stability index?
1. N2V
2. H16A
3. E17F
4. L12I
5. N2E
6. A15Q

Result:
[1.6, 3.64, 2.45, 3.86, 4.46, 3.82]

For every record below, what is its protein stability index?
1. L12G
2. H8F
3. L11W
4. S4Y

Result:
1: 4.23; 2: 1.99; 3: 2.38; 4: 4.27
